# reported pIC50; entries follow
Target: UniProt P25101
Sequence (P25101 21-427): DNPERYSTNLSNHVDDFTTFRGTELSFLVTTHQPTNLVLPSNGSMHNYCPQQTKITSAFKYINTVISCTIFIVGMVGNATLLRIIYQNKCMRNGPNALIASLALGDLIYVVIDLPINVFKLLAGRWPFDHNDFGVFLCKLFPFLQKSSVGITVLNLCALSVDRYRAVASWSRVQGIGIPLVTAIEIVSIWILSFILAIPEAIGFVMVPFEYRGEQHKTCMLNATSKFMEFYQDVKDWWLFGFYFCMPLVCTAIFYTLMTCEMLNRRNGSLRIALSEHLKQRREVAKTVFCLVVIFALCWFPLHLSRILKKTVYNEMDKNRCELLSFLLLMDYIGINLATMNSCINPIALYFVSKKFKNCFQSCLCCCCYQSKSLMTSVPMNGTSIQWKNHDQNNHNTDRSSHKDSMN
Experiment: Inhibition of endothelin binding to recombinant ETA receptors
Settings: baculovirus-insect cell membranes, 20 pM 125I-endothelin, 20° C. for 2 hours or 4° C. for 24 hours, read-out: IC50 (inhibition of specific binding of 125I-endothelin)
pIC50: −log10 of the molar value.
outcomeMeasure: pIC50

INSERT INTO results (smilesrepresentation, experimentaltarget, testvalue) VALUES
  ('COc1ccccc1Oc1c(NS(=O)(=O)c2ccc3c(c2)OCO3)nc(-c2ccnc(-c3nnn[nH]3)c2)nc1OCCOC(=O)Nc1ccccn1', 'UniProt P25101', 9.00),
  ('COc1ccccc1Oc1c(NS(=O)(=O)c2ccc(C)cc2)nc(-c2ccnc(-c3nnn[nH]3)c2)nc1OCCOC(=O)Nc1ccccn1', 'UniProt P25101', 8.10),
  ('COc1ccccc1Oc1c(NS(=O)(=O)c2ccc(C(C)(C)C)cc2)nc(-c2ccnc(-c3nnn[nH]3)c2)nc1OCCOC(=O)Nc1ccccn1', 'UniProt P25101', 8.22),
  ('COc1ccccc1Oc1c(NS(=O)(=O)c2ccc(SC)cc2)nc(-c2ccnc(-c3nnn[nH]3)c2)nc1OCCOC(=O)Nc1ccccn1', 'UniProt P25101', 8.10),
  ('COc1ccccc1Oc1c(NS(=O)(=O)c2ccc(C)cn2)nc(-c2ccnc(-c3nnn[nH]3)c2)nc1OCCO', 'UniProt P25101', 8.40),
  ('COc1ccccc1Oc1c(NS(=O)(=O)c2ccccc2)nc(-c2ccnc(-c3nnn[nH]3)c2)nc1OCCOC(=O)Nc1ccccn1', 'UniProt P25101', 8.70);
